Target: human dUTPase (Homo sapiens (Human))
Test: Human dUTPase inhibitory effect: production of [5-3H]dUMP from [5-3H]dUTP, measured by HPLC with flow scintillation
Details: [5-3H]dUMP production from [5-3H]dUTP, 37° C., 15 minutes
Protocol: The inhibitory activity of the compound of the present invention against human dUTPase was determined by measuring the production of [5-^3H]deoxyuridine monophosphate (hereinafter, referred to as [5-^3H]dUMP) from [5-^3H]deoxyuridine triphosphate (hereinafter, referred to as [5-^3H]dUTP) according to a method shown below. […] The inhibitory activity of the test compound was determined according to the formula shown below.
pIC50: −log10 of the molar value.
Given measured pIC50, output y if it is greater than or equal to 6 and n if not.

>>> label_value("C[C@@H](NS(=O)(=O)CC/C=C/Cn1ccc(=O)[nH]c1=O)c1cccc(OC2CCCC2)c1")
"y"
>>> label_value("C#C[C@H](C)Oc1cccc([C@@H](C)NS(=O)(=O)CCCOCn2ccc(=O)[nH]c2=O)c1")
"y"
>>> label_value("C[C@@H](NS(=O)(=O)CC/C=C/Cn1ccc(=O)[nH]c1=O)c1cccc(OCC2CC2)c1")
"y"
>>> label_value("C[C@@H](NS(=O)(=O)CCCOCn1ccc(=O)[nH]c1=O)c1cccc(OC2CCOCC2)c1")
"y"
>>> label_value("CC(C)(CCCOCn1ccc(=O)[nH]c1=O)NS(=O)(=O)c1cccc(OC2CCCC2)c1")
"y"
>>> label_value("O=c1ccn(CCCS(=O)(=O)N[C@H](c2ccc(F)cc2)c2cccc(OCC3CC3)c2)c(=O)[nH]1")
"y"
>>> label_value("O=c1ccn(CCCCCS(=O)(=O)NCc2cccc(OCC3CC3)c2)c(=O)[nH]1")
"y"
>>> label_value("C[C@@H](NS(=O)(=O)CCCCCn1ccc(=O)[nH]c1=O)c1ccc(F)c(OCC2CC2)c1")
"y"
>>> label_value("O=c1ccn(CCCS(=O)(=O)N2CCC[C@@H]2C(O)(c2ccccc2)c2ccccc2)c(=O)[nH]1")
"y"
>>> label_value("CC(C)(CCCOCn1ccc(=O)[nH]c1=O)NS(=O)(=O)c1cccc(F)c1")
"n"
>>> label_value("CC(C)(NS(=O)(=O)CCCOCn1ccc(=O)[nH]c1=O)c1cccc(OCC2CC2)c1")
"y"
>>> label_value("O=c1ccn(COCCCS(=O)(=O)NCc2cccc(OC3CCOCC3)c2)c(=O)[nH]1")
"n"
>>> label_value("CC[C@@H](NS(=O)(=O)CCCOCn1ccc(=O)[nH]c1=O)c1cccc(OC2CCCC2)c1")
"y"
>>> label_value("O=c1ccn(COCCCS(=O)(=O)N2CCC[C@@H]2C(c2ccccc2)c2ccccc2)c(=O)[nH]1")
"n"
>>> label_value("CN(CCc1cccc(OCC2CC2)c1)S(=O)(=O)CCCn1ccc(=O)[nH]c1=O")
"n"
>>> label_value("C[C@@H](NS(=O)(=O)CCCOCn1ccc(=O)[nH]c1=O)c1ccc(F)c(OC2CCCC2)c1")
"y"
>>> label_value("CC(C)(CCCOCn1ccc(=O)[nH]c1=O)NS(=O)(=O)c1cccc(OCC(F)F)c1")
"y"
>>> label_value("CCC(CC)(NS(=O)(=O)CCCOCn1ccc(=O)[nH]c1=O)c1ccc(F)c(OCC2CC2)c1")
"y"
>>> label_value("C[C@@H](NS(=O)(=O)CCCOCn1ccc(=O)[nH]c1=O)c1cccc(OC2CCCC2)c1")
"y"
>>> label_value("C[C@@H](NS(=O)(=O)CCCCCn1ccc(=O)[nH]c1=O)c1cccc(OC2CCCC2)c1")
"y"
>>> label_value("O=c1ccn(CCCS(=O)(=O)NC(c2ccccc2)c2ccccc2)c(=O)[nH]1")
"n"
>>> label_value("CC(C)(CCCOCn1ccc(=O)[nH]c1=O)NS(=O)(=O)c1ccccc1")
"n"
>>> label_value("CC(NS(=O)(=O)CCCOCn1ccc(=O)[nH]c1=O)c1cccc(OCC2CC2)c1 (stereo not drawn)")
"y"

* * *

# reported pIC50; entries follow
Target: UniProtKB P33316
Test: Human dUTPase inhibitory effect: production of [5-3H]dUMP from [5-3H]dUTP, measured by HPLC with flow scintillation
Conditions: [5-3H]dUMP production from [5-3H]dUTP, 37° C., 15 minutes
pIC50: −log10 of the molar value.
readout kind: pIC50

>>> readout_value("C[C@@H](NS(=O)(=O)CCCOCn1ccc(=O)[nH]c1=O)c1cccc(OC(F)(F)C(F)F)c1 [Example 51]")
6.08
>>> readout_value("CC(C)(NS(=O)(=O)c1ccccc1)c1ccc(Cn2ccc(=O)[nH]c2=O)cc1 [Example 176]")
5.57
>>> readout_value("COc1cccc(S(=O)(=O)NC(C)(C)CCCOCn2ccc(=O)[nH]c2=O)c1 [Example 135]")
5.95

* * *

Biological target: human dUTPase (Homo sapiens (Human), UniProt P33316)
Sequence (P33316 94-252): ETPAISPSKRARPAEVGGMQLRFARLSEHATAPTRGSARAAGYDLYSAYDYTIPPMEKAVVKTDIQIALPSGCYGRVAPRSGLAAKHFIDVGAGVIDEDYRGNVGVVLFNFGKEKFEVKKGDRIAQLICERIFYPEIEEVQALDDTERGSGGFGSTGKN
Assay: Human dUTPase inhibitory effect: production of [5-3H]dUMP from [5-3H]dUTP, measured by HPLC with flow scintillation
Settings: [5-3H]dUMP production from [5-3H]dUTP, 37° C., 15 minutes
Procedure: The inhibitory activity of the compound of the present invention against human dUTPase was determined by measuring the production of [5-^3H]deoxyuridine monophosphate (hereinafter, referred to as [5-^3H]dUMP) from [5-^3H]deoxyuridine triphosphate (hereinafter, referred to as [5-^3H]dUTP) according to a method shown below. […] The inhibitory activity of the test compound was determined according to the formula shown below.
Reported IC50 values are given for each entry in this list.
readout kind: IC50 (nM)

>>> readout_value("O=c1ccn(C/C=C/CCS(=O)(=O)NCc2cccc(OCC3CC3)c2)c(=O)[nH]1 [Example 113]")
410
>>> readout_value("CC(C)COc1cccc([C@@H](C)NS(=O)(=O)CCCOCn2ccc(=O)[nH]c2=O)c1 [Example 58]")
310
>>> readout_value("CC(C)(CCCOCn1ccc(=O)[nH]c1=O)NS(=O)(=O)c1ccccc1Cl [Example 142]")
7640

* * *

Measured pIC50 by item
Target: human dUTPase (Homo sapiens (Human), UniProt P33316)
Assay: Human dUTPase inhibitory effect: production of [5-3H]dUMP from [5-3H]dUTP, measured by HPLC with flow scintillation
Conditions: [5-3H]dUMP production from [5-3H]dUTP, 37° C., 15 minutes
pIC50: −log10 of the molar value.
readout kind: pIC50

>>> readout_value("CC[C@H](C)COc1cccc([C@@H](C)NS(=O)(=O)CCCOCn2ccc(=O)[nH]c2=O)c1")
6.14
>>> readout_value("CC(C)C[C@@H](NS(=O)(=O)CCCOCn1ccc(=O)[nH]c1=O)C(O)(c1ccccc1)c1ccccc1")
5.89
>>> readout_value("O=c1ccn(COCCCS(=O)(=O)NC(c2ccccc2)c2cccc(OCC3CCC3)c2)c(=O)[nH]1 (stereo not shown)")
6.05
>>> readout_value("C[C@@H](NS(=O)(=O)CCCn1ccc(=O)[nH]c1=O)c1ccc(F)c(OCC2CC2)c1")
6.18
